pIC50: −log10 of the molar value.
Here we list compounds with their recorded pIC50 when tested on HER-2 (Homo sapiens, UniProt P04626).
Sequence (P04626 23-1255): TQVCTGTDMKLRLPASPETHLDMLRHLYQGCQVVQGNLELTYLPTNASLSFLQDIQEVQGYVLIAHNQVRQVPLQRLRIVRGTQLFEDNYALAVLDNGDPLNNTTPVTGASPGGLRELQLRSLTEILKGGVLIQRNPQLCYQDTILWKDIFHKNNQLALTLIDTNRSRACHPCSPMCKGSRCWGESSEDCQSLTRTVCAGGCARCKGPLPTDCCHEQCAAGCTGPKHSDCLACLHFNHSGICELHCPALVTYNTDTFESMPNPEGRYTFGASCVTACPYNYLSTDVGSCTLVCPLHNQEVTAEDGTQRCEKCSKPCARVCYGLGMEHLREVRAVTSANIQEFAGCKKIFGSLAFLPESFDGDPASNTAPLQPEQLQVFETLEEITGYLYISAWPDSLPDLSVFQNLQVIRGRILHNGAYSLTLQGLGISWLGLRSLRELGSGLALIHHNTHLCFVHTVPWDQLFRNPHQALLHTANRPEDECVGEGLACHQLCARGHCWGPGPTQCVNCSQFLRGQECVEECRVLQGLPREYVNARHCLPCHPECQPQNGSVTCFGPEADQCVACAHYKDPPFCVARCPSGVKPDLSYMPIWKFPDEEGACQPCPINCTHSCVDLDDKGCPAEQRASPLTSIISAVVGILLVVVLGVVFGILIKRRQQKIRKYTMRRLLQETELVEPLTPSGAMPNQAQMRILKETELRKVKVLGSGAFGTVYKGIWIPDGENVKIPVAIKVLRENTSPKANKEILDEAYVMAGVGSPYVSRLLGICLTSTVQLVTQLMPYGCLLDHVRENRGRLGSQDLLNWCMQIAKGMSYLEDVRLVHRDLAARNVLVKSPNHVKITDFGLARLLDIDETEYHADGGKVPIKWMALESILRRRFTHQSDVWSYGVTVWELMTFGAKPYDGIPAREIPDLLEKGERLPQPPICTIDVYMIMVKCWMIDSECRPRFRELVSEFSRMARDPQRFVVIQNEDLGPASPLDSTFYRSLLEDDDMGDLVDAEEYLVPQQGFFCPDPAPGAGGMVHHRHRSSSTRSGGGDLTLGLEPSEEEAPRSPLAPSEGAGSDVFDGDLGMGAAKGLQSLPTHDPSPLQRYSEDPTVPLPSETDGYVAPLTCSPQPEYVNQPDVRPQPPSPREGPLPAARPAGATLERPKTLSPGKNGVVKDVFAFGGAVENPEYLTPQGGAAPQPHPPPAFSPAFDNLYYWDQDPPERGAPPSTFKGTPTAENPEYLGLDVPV
EXPERIMENTAL READOUT: pIC50

Query: If you can, please state the reported pIC50 value of COc1cc2nc(-c3ccc(C(F)(F)F)cc3)cc(OCCCNCC3CCCO3)c2cc1OC (stereo not drawn) .
Response: 5.86

Query: If you can, please state the reported pIC50 value of COc1ccc(-c2ccc3nc(-c4ccc(Cl)cc4)cc(OCCCn4ccnc4)c3c2)cc1 [20a] .
Response: 5.99

Query: If you can, please state the reported pIC50 value of `COc1cc2nc(-c3ccc(-c4cccs4)cc3)cc(OCCCN3CCN(C)CC3)c2cc1OC` .
Response: 5.97
